Measured viability values are reported for all entries that follow.
- Test Method Notes: growth inhibitors of H69AR lung tumor, primary screen, human, duplicate replicates (AID 580);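 also: 100% = mean luminescence of untreated wells and 0% = no signal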
- Particulars: H69AR lung tumor cells viability, ATP luminescence, 72 h; at 10 µM; stronger effect = lower value
Response body: numeric value in %, unit text excluded.

COCCOC(=O)C1=C(C)Nc2ncnn2C1c1ccc(F)cc1 (stereo not drawn) | 85.8

Look up viability for this compound: "C[C@H](NC(=O)Nc1ccccc1F)C(=O)O"
100

Also check "O=C(OCc1nnc(-c2ccc(Cl)cc2)o1)c1ccc(=O)n(Cc2ccccc2)n1"
95.1

---

- Test Method Notes: reducers of endogenous Her2 protein level, primary screen, SKBR3 breast tumor cells, AlphaScreen, ATP viability (AID 461);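 also: percent of carrier control wells set as 100% viability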
- Particulars: 18-24 h, measured here: SKBR3 viability, ATP luminescence, at 10 µM
Measured Endpoint: viability (%)
API: value field is a number in %; no unit string.

CCn1c(SCC(=O)c2ccc3c(c2)OCCO3)nnc1-c1ccco1 | 102
CCOC(=O)C(CC)Sc1nc2c(c(=O)[nH]c(=O)n2C)n1C/C=C(/C)Cl (stereo not drawn) | 97.5

Shifting focus to the molecule that follows.
What value of measured viability is listed for COc1ccc(C2/C(=C(/O)c3ccccc3)C(=O)C(=O)N2C)cc1 (stereo not drawn) ?
102

---

- Test Method Notes: 384-well plate pilot, post-Golgi transport modulator project, inhibition of yeast transport mutant growth (AID 636)
- Particulars: absorbance 615 nm, about 18 h, stronger effect = higher value
Measured Endpoint: inhibition (%)
Give the number; % is assumed, so skip it.

Cn1c(=O)c2c(nc(SCCCC#N)n2Cc2ccccc2F)n(C)c1=O | -3.47
Cc1cc(OCC(=O)N2CCCC2)cc(C)c1Cl | -6.8
Cn1c(=O)oc2cc(S(=O)(=O)N3CCC(C(=O)Nc4ccc(OC(F)(F)F)cc4)CC3)ccc21 | -5.92

Consider the compound shown here: CCOC(=O)CSC1=Nc2ccccc2C2=NC(CC(=O)NCc3ccc(OC)cc3)C(=O)N12 (stereo not given) What is its recorded inhibition?
-4.21

Try the compound CCOc1ccc(CN2C(=O)c3ccccc3C2C(=O)NCc2cccnc2)cc1 (stereo not given)
-0.91

Query CC(=O)NC(Cc1c[nH]c2ccccc12)C(=O)OCC(=O)Nc1cc(C)on1 (stereo not given) next
3.46

Now consider "Cc1ccc(-n2c(Cn3cnc4ccccc43)nnc2SCC(=O)O)cc1" .
-4.13

Further, for O=C(c1cc2ccccc2oc1=O)N1CCSC1c1ccco1 (stereo not given) ?
-8.4

Same again, this time with "CCOC(=O)N1CCC2(CC1)CC(=O)c1c(ccc3oc(C(=O)O)c(C)c13)O2"
-0.79

One more compound: "CCc1nnc(NC(=O)CSc2nnc(-c3ccc(OC)cc3)n2C)s1"
-2.8

---

- Test Method Notes: growth suppression of yeast trafficking mutant, preliminary HTS, modulators of trafficking downstream of Golgi apparatus project, 1536-format plate, OD 615 nm (AID 637)
- Particulars: yeast transport mutant growth, absorbance 615 nm, 18 h
Calls of active or inactive are those of the source. Cut-off read from the data, not from the text of the source: active = inhibition above about 30%; inactive = the rest.
Result category, one only: true (1) = active, false (0) = inactive

Study these solved cases before continuing.
COc1ccc(CC(=O)NC2CCN(CC(=O)Nc3ccc4c(c3)OCCO4)CC2)cc1OC | false (0)
Cc1ccc(-n2nnnc2SCC(=O)c2cc(C)n(CC3CCCO3)c2C)cc1 (configuration not stated) | false (0)

Query compound follows.
Hello, I am checking results. What call was entered for "CC(C)(C)n1nc2c(c1NC(=O)COc1ccc(Cl)cc1)CSC2" ?
false (0)
